molecular target: human KDR enzyme (Homo sapiens); construct: The cytoplasmic domain of the human KDR enzyme was cloned in the form of a GST fusion; GST; assay: KDR substrate phosphorylation assay (scintillation, 96-well plate); conditions: cytoplasmic domain of human KDR as GST fusion, 2 μM cold ATP, 1 hour at 37° C.
Sequence (P35968 786-1356 limits assumed): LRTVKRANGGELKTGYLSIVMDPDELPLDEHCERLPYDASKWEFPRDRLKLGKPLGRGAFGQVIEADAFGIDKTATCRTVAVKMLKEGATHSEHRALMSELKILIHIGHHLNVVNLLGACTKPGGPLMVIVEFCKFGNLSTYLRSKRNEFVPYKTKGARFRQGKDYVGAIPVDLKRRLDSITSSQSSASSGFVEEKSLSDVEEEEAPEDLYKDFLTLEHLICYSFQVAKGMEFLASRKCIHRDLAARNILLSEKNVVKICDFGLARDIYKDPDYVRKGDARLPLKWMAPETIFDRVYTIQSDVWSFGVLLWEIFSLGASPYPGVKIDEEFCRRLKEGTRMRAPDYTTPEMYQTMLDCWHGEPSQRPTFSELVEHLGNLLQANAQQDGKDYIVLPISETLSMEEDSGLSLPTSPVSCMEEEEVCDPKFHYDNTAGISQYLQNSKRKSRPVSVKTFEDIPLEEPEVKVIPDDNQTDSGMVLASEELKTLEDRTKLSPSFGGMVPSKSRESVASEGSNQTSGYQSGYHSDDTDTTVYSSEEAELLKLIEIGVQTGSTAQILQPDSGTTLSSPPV
Counter-ions that a name gives are not always drawn.
# Lookup of reported IC50 keyed by entry

>  <compound>
O=C(Nc1ncc(-c2cc(C(=O)N3CCOCC3)c3cn[nH]c3n2)s1)Nc1cc(C(F)(F)F)ccc1F

>  <study.target>
human KDR enzyme (Homo sapiens)

>  <IC50 [µM]>
0.07

$$$$
>  <compound>
CN1CCN(C(=O)c2cc(-c3cnc(NC(=O)Nc4cc(C(F)(F)F)ccc4F)s3)nc3[nH]ncc23)CC1

>  <study.target>
human KDR enzyme (Homo sapiens)

>  <IC50 [µM]>
0.046

$$$$
>  <compound>
O=C(Nc1ncc(-c2cc(C(=O)NCCCN3CCOCC3)c3cn[nH]c3n2)s1)Nc1cc(C(F)(F)F)ccc1F

>  <study.target>
human KDR enzyme (Homo sapiens)

>  <IC50 [µM]>
0.511

$$$$
>  <compound>
O=C(Nc1ncc(-c2cc(C(=O)NCc3ccccn3)c3cn[nH]c3n2)s1)Nc1cc(C(F)(F)F)ccc1F

>  <study.target>
human KDR enzyme (Homo sapiens)

>  <IC50 [µM]>
0.16

$$$$
>  <compound>
O=C(Nc1ncc(-c2cc(C(=O)NCCc3cnc[nH]3)c3cn[nH]c3n2)s1)Nc1cc(C(F)(F)F)ccc1F

>  <study.target>
human KDR enzyme (Homo sapiens)

>  <IC50 [µM]>
0.293

$$$$
>  <compound>
O=C(Nc1ccccc1)Nc1ncc(-c2cc(C(=O)NCCN3CCOCC3)c3cn[nH]c3n2)s1

>  <study.target>
human KDR enzyme (Homo sapiens)

>  <IC50 [µM]>
6.82

$$$$
>  <compound>
Nc1n[nH]c2nc(-c3ccc(NC(=O)Nc4cc(C(F)(F)F)ccc4F)cc3)ccc12

>  <study.target>
human KDR enzyme (Homo sapiens)

>  <IC50 [µM]>
0.119

$$$$
>  <compound>
O=C(Nc1ccc(-c2ccc3c(NC(=O)c4ccsc4)n[nH]c3n2)cc1)Nc1cc(C(F)(F)F)ccc1F

>  <study.target>
human KDR enzyme (Homo sapiens)

>  <IC50 [µM]>
0.006

$$$$
>  <compound>
O=C(Nc1ncc(-c2cc(C(=O)NCCN3CCOCC3)c3cn[nH]c3n2)s1)Nc1cc(C(F)(F)F)ccc1F [Example 4, trifluoroacetate]

>  <study.target>
human KDR enzyme (Homo sapiens)

>  <IC50 [µM]>
0.083

$$$$
>  <compound>
O=C(Nc1ncc(-c2cc(C(=O)NCCN3CCNCC3)c3cn[nH]c3n2)s1)Nc1cc(C(F)(F)F)ccc1F

>  <study.target>
human KDR enzyme (Homo sapiens)

>  <IC50 [µM]>
0.527

$$$$
>  <compound>
O=C(Nc1ncc(-c2cc(C(=O)NCCC3CCNCC3)c3cn[nH]c3n2)s1)Nc1cc(C(F)(F)F)ccc1F

>  <study.target>
human KDR enzyme (Homo sapiens)

>  <IC50 [µM]>
0.133

$$$$
>  <compound>
O=C(Nc1ncc(-c2cc(C(=O)NCCO)c3cn[nH]c3n2)s1)Nc1cc(C(F)(F)F)ccc1F

>  <study.target>
human KDR enzyme (Homo sapiens)

>  <IC50 [µM]>
0.387

$$$$

FYI, the data here is from patent US8058290B2.
